B1: Protein PTHB1 (Homo sapiens), Q3SYG4 (parent)
chain: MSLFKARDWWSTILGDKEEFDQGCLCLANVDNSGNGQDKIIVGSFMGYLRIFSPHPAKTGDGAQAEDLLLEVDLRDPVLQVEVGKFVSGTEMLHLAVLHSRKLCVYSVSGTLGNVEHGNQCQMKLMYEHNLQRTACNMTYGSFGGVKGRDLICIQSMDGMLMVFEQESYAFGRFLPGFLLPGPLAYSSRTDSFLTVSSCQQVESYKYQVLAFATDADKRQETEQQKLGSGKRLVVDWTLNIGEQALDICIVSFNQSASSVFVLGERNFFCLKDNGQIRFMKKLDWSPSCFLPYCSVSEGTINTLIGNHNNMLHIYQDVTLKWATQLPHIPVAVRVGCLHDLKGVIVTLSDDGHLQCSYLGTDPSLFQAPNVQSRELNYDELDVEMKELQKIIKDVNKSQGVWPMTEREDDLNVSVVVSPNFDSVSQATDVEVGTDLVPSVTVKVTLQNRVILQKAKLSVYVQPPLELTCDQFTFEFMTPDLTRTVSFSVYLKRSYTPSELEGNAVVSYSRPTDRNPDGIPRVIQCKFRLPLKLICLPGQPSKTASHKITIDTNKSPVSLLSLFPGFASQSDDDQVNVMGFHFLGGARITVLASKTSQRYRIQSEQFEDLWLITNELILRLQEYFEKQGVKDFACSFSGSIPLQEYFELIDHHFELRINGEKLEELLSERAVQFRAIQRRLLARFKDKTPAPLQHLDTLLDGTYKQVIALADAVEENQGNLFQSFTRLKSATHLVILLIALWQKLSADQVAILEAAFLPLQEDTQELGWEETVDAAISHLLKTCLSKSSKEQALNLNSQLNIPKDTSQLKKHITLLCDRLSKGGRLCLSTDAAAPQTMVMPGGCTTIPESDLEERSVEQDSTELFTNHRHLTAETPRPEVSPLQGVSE
partner: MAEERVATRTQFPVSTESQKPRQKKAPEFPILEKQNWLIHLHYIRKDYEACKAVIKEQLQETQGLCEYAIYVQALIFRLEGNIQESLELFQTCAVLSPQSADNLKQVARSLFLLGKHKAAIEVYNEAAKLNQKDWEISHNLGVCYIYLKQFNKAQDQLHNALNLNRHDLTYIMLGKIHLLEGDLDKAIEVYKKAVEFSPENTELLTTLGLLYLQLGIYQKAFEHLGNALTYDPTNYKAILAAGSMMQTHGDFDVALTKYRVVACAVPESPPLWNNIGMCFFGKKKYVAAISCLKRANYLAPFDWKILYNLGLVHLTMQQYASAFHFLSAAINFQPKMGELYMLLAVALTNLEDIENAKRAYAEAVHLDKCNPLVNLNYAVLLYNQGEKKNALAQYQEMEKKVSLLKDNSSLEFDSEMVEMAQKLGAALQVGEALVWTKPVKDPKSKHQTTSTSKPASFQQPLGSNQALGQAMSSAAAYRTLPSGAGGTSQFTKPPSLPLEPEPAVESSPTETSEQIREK

Variants of: B1
condition_summary: with bbs4_human BBS4, Q96RK4
assay_endpoint: effect of a mutation on the interaction

Reported effect of a mutation on the interaction for S414A : what is it?
with no effect

Then what about the variant L500A ?
with no effect

Q471K , same question.
with no effect
